Measured selectivity ratio, listed per entry.
test: Selectivity index, ratio of IC50 for human HepG2A16 cells to IC50 for ring stage Plasmodium falciparum W2; type: toxicity; settings: read-out: Ratio IC50
Form: value (number only, do not type unit).

Past entries and their recorded results:
>>> measurement("CCN(CC)CCNc1c2ccc(Cl)cc2nc2c3cc(Cl)ccc3n(CCN3CCCC3)c12")
103
>>> measurement("Clc1ccc2c(NCCCN3CCOCC3)c3c(nc2c1)c1ccccc1n3CCN1CCCC1")
96
>>> measurement("Clc1ccc2c(NCCCN3CCCCC3)c3c(nc2c1)c1cc(Cl)ccc1n3CCN1CCCC1")
59
>>> measurement("CCN(CC)CCNc1c2ccc(Cl)cc2nc2c3cc(Cl)ccc3n(CCN3CCOCC3)c12")
103
>>> measurement("Clc1ccc2c(NCCN3CCCC3)c3c(nc2c1)c1cc(Cl)ccc1n3CCN1CCCC1")
70

Return reported selectivity ratio; argument: `Clc1ccc2c(NCCN3CCCC3)c3c(nc2c1)c1ccccc1n3CCN1CCCC1` 46

Same question, CCN(CC)CCCC(C)Nc1c2ccc(Cl)cc2nc2c3ccccc3n(CCN3CCCC3)c12 (configuration not stated) this time 125
